experiment: chemical genetic growth profiling, strain panel (AID 1159580);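 note: tested at 20 µM; growth read once vehicle control cultures reached saturation at 30 °C; 1 = growth at the plate median or of vehicle wells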; details: S. cerevisiae deletion strains, growth OD, locus YDL101C, strain DUN1
The whole screen tested about 5,500 compounds, of which about 2,000 (36%) were called active. Another 18% or so got no clear call; they are omitted. Cut-off read from the data, not from the text of the source: active = normalized growth mostly below about 0.91 (no sharp cut-off); inconclusive = no clear call, values can overlap the other calls; inactive = mostly above about 0.92. The list shows a part of the results.
A correct response names exactly one class from class 1 for active, class 0 for inactive

INSERT INTO results (compound, classification) VALUES
  ('O=C(CC1NCCN(Cc2ccccc2)C1=O)Nc1ccc(Cl)cc1 (stereo not given)', 'class 0'),
  ('NC(=O)c1ccc[n+]([C@@H]2O[C@H](COP(=O)([O-])OP(=O)(O)OC[C@H]3O[C@@H](n4cnc5c(N)ncnc54)[C@H](OP(=O)(O)O)[C@@H]3O)[C@@H](O)[C@H]2O)c1', 'class 0'),
  ('Cc1ccc(S(=O)(=O)NC(=O)Nc2ccc(Sc3ccccc3)nc2Sc2ccccc2)cc1', 'class 0'),
  ('COc1ccc(C(CN(C)C)C2(O)CCCCC2)cc1 (stereo not given)', 'class 0'),
  ('O=C(O)CCCc1ccccc1', 'class 0'),
  ('CC(=O)O[C@H]1C[C@@H](OC(C)=O)C(C)(C)C2CC(=O)[C@]3(C)C(CC[C@@]4(C)[C@H](C(=O)O)OC(=O)C5OC543)[C@]21C (stereo not given in full)', 'class 0'),
  ('O=C(CCc1nc(-c2ccc(Cl)cc2)no1)NNS(=O)(=O)c1cc(Cl)c(Cl)cc1Cl', 'class 0'),
  ('O=C(CSc1ccc(Cl)cc1)Nc1ccc(F)cc1', 'class 0'),
  ('Nc1nc(=S)c2[nH]cnc2[nH]1', 'class 0'),
  ('O=c1cccc2ccc(O)c(O)c2c1O', 'class 1');

Query :: Assay outcome for O=C(O[C@@H]1Cc2c(O)cc(O)cc2O[C@@H]1c1ccc(O)c(O)c1)c1cc(O)c(O)c(O)c1 : what was it?
Result :: class 0

Query :: Query CC[C@H]1OC(=O)[C@H](C)[C@@H](O[C@H]2C[C@@](C)(OC)[C@@H](O)[C@H](C)O2)[C@H](C)[C@@H](O[C@@H]2O[C@H](C)C[C@H](N(C)C)[C@H]2O)[C@](C)(OC)C[C@@H](C)C(=O)[C@H](C)[C@@H](O)[C@]1(C)O next
Result :: class 0

Query :: Query CCOC(=O)c1ccc2nc(N=CNO)sc2c1 next
Result :: class 0

Query :: Query CC(=O)Oc1cc(OC(C)=O)c2c(c1)O[C@H](c1ccc(OC(C)=O)c(OC(C)=O)c1)[C@H](OC(C)=O)C2 next
Result :: class 0

----------
experiment: chemical genetic growth profiling, strain panel (AID 1159580);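 note: tested at 20 µM; growth read once vehicle control cultures reached saturation at 30 °C; 1 = growth at the plate median or of vehicle wells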; conditions: S. cerevisiae deletion strains, growth OD, locus YDR335W, strain msn5, stronger effect = lower value
Out of some 5,500 compounds screened, about 2,000 (36%) were called active. Another 18% or so got no clear call; they are omitted. Some of the results follow.
Overview of reported normalized growth across a group of molecules:
Output: the number by itself.

Reference set, count: 2
INSERT INTO assay_data (molecule, measuredproperty, val) VALUES
  ('C/C=C(\C)C(=O)O[C@H]1C[C@@H](OC(C)=O)[C@@]2(C(=O)OC)CO[C@@H]3C2[C@]12CO[C@](O)(C(=O)OC)[C@H]2[C@](C)(C12O[C@@]1(C)[C@H]1C[C@@H]2OC2OC=C[C@@]21O)[C@@H]3O (stereo partly drawn)', 'normalized growth', 0.981),
  ('Oc1cc(O)c2c(c1)O[C@H](c1ccc(O)c(O)c1)[C@H](O)C2', 'normalized growth', 0.994);

// next item, normalized growth requested
Query :: Can you share its normalized growth? I mean this molecule: C#CCN(C)Cc1ccccc1
Result :: 0.996
